Source: the nanobody polyreactivity screen of Harvey et al. (2022)

test: yeast display, Sf9 membrane polyspecificity reagent, FACS + sequencing; frameworks hold sequencing errors
measured.attribute: polyreactivity (PSR sort gate)

Please review the following examples before continuing.
INSERT INTO assay_data (sequence_data, measured_attribute, test_result) VALUES
  ('QVQLVESGGGLVQAGGSLRLSCAASGGIIDWYVKGWYRQAPGTERELVAAISYKGGSTYYADSVKGRFTISRDYAKTTGYFQMNSLKPEETAVYDCAAGVTSPYRYVWYDYWGQGTQVTVSS', 'polyreactivity (PSR sort gate)', 'low polyreactivity'),
  ('QVQLVESGGGLVQAGGSLRLSCAASGFTLADNTMGWYRQAPGKEMELVAAITSGASTYYADSVKGRFTISRDNAKNTVYLQMNSLKPEDTAVYYCAALYYWLSGYDYWGQGTQVTVSS', 'polyreactivity (PSR sort gate)', 'low polyreactivity'),
  ('QVQLVESGGGLVQAGGSLRLSCAASGSTFGRYVMGRYRPAPGKERELVAAISGSGGSTYYADSVKGRFTISRDNAKNTVYLQMNSLKPEDTAVYYCAARVAHYEYYWGQGTQVTVSS', 'polyreactivity (PSR sort gate)', 'high polyreactivity'),
  ('QVQLVESGGGLVQAGGSIRLSCAASGRIFGAYAIGWYRQAPGKERELVADIRTTGSTNYADSVKGRFTISRDNAKNTVYLQMNSLKPEDTAVYYCAARWRSRRFGSGFEYWGQGTQVTVSS', 'polyreactivity (PSR sort gate)', 'high polyreactivity'),
  ('QVQLVESGGALVQAGGSLRLSCAASGRTFFGNAMGRYRQAPGKERELVAAISFSGGRTDYADSVKGRFTISRDNAKNTVFLQMNSLKPEDTAVYYCAARTYSAPRNRYYYWGQGTQVTVSS', 'polyreactivity (PSR sort gate)', 'high polyreactivity');

Query sequence follows.
polyreactivity (PSR sort gate) in this record for "QVQLVESGGGLVQAGGSLRLSCSASGSIFGRKMGWYRQAPVKERELVAAITWSGGRTYYADSVKGRFTISRDNAKNTVYLLMNCLKPEDTAVYYCNAVRRYTGYAFKDDYWGQGNQVTVSS" : high polyreactivity
